# Test system: NCI-H522 lung
# assay method text: NCI tumour cell line growth inhibition, 48 h
Documented TGI across a set of compounds

Solved entries (count: 5):
O=C1c2ccccc2C(=O)N1CCCCCCNOCCCN1C(=O)c2ccccc2C1=O    79.3 µM
CC(C)c1cccc(C(C)C)c1NC(=O)C(=O)C(C(=O)c1ccc2ccccc2c1)C1OC(=O)c2ccccc21 (configuration not stated)    > 100 µM
O=C(Nc1ccccc1C(=O)O)/C(=C/c1ccccc1)NC(=O)c1ccccc1    > 100 µM
c1ccc2c(c1)nc1n2CSC1    > 100 µM
C[C@H]1CC(=O)C2=CCCC3(SCCCS3)[C@@H]2[C@H]1CO    > 100 µM

GET /values?readout=TGI&system=NCI-H522 lung&item= CN1C2C=C(c3ccccc3)CC1CC2 (configuration not stated)
> 100 µM

GET /values?readout=TGI&system=NCI-H522 lung&item= `COc1cc2cc[n+]3c4cc(OC)c(OC)cc4c(C)cc3c2cc1OC`
> 100 µM

GET /values?readout=TGI&system=NCI-H522 lung&item= `CN(C)C=Nc1cccc2cnccc12`
> 100 µM

GET /values?readout=TGI&system=NCI-H522 lung&item= O=C1CN2C(Cl)(Cl)C2(c2ccccc2)c2cc(Cl)ccc2N1CC(F)(F)F (configuration not stated)
42.7 µM

GET /values?readout=TGI&system=NCI-H522 lung&item= CC(C)(C)OC(=O)NC(Cc1cnc[nH]1)C(=O)N1CCCC1C(N)=O (configuration not stated)
> 100 µM

---

# Test system: RPMI-8226 leukemia
# assay method text: NCI tumour cell line growth inhibition, 48 h
Documented TGI across a set of molecules
The response must be a number in µM with no trailing unit.

Solved entries (count: 10):
C#CCNC(=O)CC[C@]1(C)[C@H]2CC[C@@H]3[C@@H]([C@@](C)(O)CCC=C(C)C)CC[C@@]3(C)[C@]2(C)CC[C@H]1C(=C)C    62.9
N#Cc1c(-c2ccccc2)cc(-c2ccccc2)n(CCCCC(=O)NO)c1=O    4.61
CC(C)=CC(=O)OC1C2C(C)C(=O)OC2C(O)C(C)C2C=CC(=O)C21C (configuration not stated)    11.7
COc1cc([C@@H]2c3cc4c(cc3[C@@H](O[C@@H]3O[C@@H]5CO[C@@H](c6cccs6)O[C@H]5[C@H](O)[C@H]3O)[C@H]3COC(=O)[C@H]23)OCO4)cc(OC)c1O    6.48
COc1cc2c3c(n(CCN(C)C)c(=O)c2cc1OC)-c1cc2c(cc1C3=O)OCO2    19.2
CC[C@@H](C(=O)[C@@H](C)[C@@H](O)[C@H](C)[C@@H]1O[C@@H]([C@@H](CC)C(=O)O)CC[C@@H]1C)[C@H]1OC2(C=C[C@@H](O)[C@]3(CC[C@@](C)([C@H]4CC[C@](O)(CC)[C@H](C)O4)O3)O2)[C@H](C)C[C@@H]1C (some centres not stated)    4.48
CN(C)CCCNc1nnc(NCCCN(C)C)c2c(=O)c3sccc3[nH]c12    57.2
CCOP(=O)(OCC)C(Cc1ccc(OC)c(OC)c1)N=C(c1ccccc1)c1ccccc1 (configuration not stated)    44.3
CC[O-].Cc1ccc2cccc([O-])c2n1.Cc1ccc2cccc([O-])c2n1.Cc1ccc2cccc([O-])c2n1.[Ti+4]    49.5
O=C1c2ccccc2C(=O)N1CCCCCCNOCCCN1C(=O)c2ccccc2C1=O    99.4

Which TGI value belongs to `CC(=O)OC[C@]12CC[C@@H]([C@@H](C)C(N)=O)[C@@H]1[C@H]1CC[C@@H]3[C@@]4(C)CC[C@H](OC(C)=O)C(C)(C)[C@@H]4CC[C@@]3(C)[C@]1(C)CC2` ?
12.4

Which TGI value belongs to CC(/C=C/c1ccc([N+](=O)[O-])o1)=N/N1CC(CN2CCOCC2)OC1=O (configuration not stated) ?
41.9

Which TGI value belongs to `COC(=NCCC1=CCCCC1)OC` ?
85.8

---

# System: SNB-78 CNS
# assay method text: NCI tumour cell line growth inhibition, 48 h
measurement kind: TGI (µM)
The response must be a number in µM with no trailing unit.

CC1=C[C@]2(CC(C)C3C(CC4(C)C5CCC6C(C)(C)C(=O)CC[C@@]67C[C@@]57CC[C@]34C)O2)OC1=O (some centres undefined)    71.9
COc1cc(C(C)c2cc3c(cc2OCCCCOc2cc4c(cc2C(C)c2cc(OC)c(OC)c(OC)c2)OCO4)OCO3)cc(OC)c1OC (centres undefined)    64

Which TGI value belongs to `CCN(CC)CCNC(=O)c1cccc2cc3ccccc3nc12` ?
57

---

Documented TGI across a set of compounds
# System: OVCAR-3 ovarian
# assay method text: NCI tumour cell line growth inhibition, 48 h

Solved entries (count: 3):
CC(C)=CC(=O)OC1C2C(C)C(=O)OC2C(O)C(C)C2C=CC(=O)C21C (stereo unspecified)    6.92 µM
CC[C@@H](C(=O)[C@@H](C)[C@@H](O)[C@H](C)CCc1ccc(C)c(O)c1C(=O)O)[C@H]1O[C@](CC)([C@H]2CC[C@](O)(CC)[C@H](C)O2)C[C@@H]1C    10.9 µM
Cc1c(C(=O)O)c2cc3ccccc3cc2c(=O)n1C    > 10 µM

Which TGI value belongs to `Cc1cc(C(=O)N2CCN(Cc3ccccc3)CC2)c(C)o1` ?
> 100 µM

Which TGI value belongs to `CN(C)CCNC(=O)c1cccc2nc3cccc(F)c3nc12` ?
8.97 µM

Which TGI value belongs to `CO/N=C1/c2sccc2[C@H](NC(=O)C(F)(F)F)[C@@H]1O` ?
> 100 µM

---

# System: OVCAR-4 ovarian
# assay method text: NCI tumour cell line growth inhibition, 48 h
Documented TGI across a set of molecules
The response must be a number in µM with no trailing unit.

CC1(C)CC2C=C(C=O)C3(C=O)CC3(C)C2C1 (centres undefined)    3.22
C=C1C(=O)O[C@@H]2C[C@@H]1CC[C@@]1(C)O[C@@H]1CC[C@@]1(C)O[C@@H]1CC[C@@]2(C)O    34.3
CC(/C=C/c1ccc([N+](=O)[O-])o1)=N/N1CC(CN2CCOCC2)OC1=O (centres undefined)    29.7

Here is another molecule to look at.
Which TGI value belongs to `COc1cc2c(cc1OC)C1(c3ccccc3)CN(C2)Cc2cc(OC)c(OC)cc21` ?
77.6

---

Documented TGI across a set of molecules
# Tested on: HL-60(TB) leukemia
# assay method text: NCI tumour cell line growth inhibition, 48 h
The response must be a number in µM with no trailing unit.

COc1ccc(C2=C(c3cc(OC)c(OC)c(OC)c3)C(=O)CC2)cc1    1.21
CN(C)CCN=Cc1c2ccccc2c(=O)n2c1oc1ccccc12    55
O=C(Nc1nc2ccc([N+](=O)[O-])cc2[n+]([O-])n1)C(F)(F)F    34.9
CC(=O)OC(C)(C)N=Nc1ccc(Br)cc1    28
C=C(CS(=O)(=O)c1ccccc1)[P+](c1ccccc1)(c1ccccc1)c1ccccc1    32.6

Which TGI value belongs to `CCOC(=O)c1cc2c([nH]1)C(=O)CC1=C2CCN1Cc1ccccc1` ?
54.1

Which TGI value belongs to COc1cccc(C2C3=C(COC3=O)N(CCO)c3cc4c(cc32)OCCO4)c1 (configuration not stated) ?
0.422

Which TGI value belongs to `CCOc1ccc(/C=C/[N+](=O)[O-])cc1` ?
49

Which TGI value belongs to `Oc1c(-c2ccccc2)sc2ccccc12` ?
45.4

Which TGI value belongs to `COc1ccc(/C=C\c2cc(OC)c(OC)c(OC)c2)cc1OC(=O)c1cccc(Cn2cc(CCOC(=O)c3cccc(Cn4nnc5c4C(=O)c4ccccc4C5=O)c3)nn2)c1` ?
0.0125

---

# Tested on: SNB-75 CNS
# assay method text: NCI tumour cell line growth inhibition, 48 h
Documented TGI across a set of compounds

CC(=O)OC(C)(C)N=Nc1ccc(Br)cc1    > 91.5 µM

Which TGI value belongs to `O=c1[nH]c(SCc2c(Cl)c(Cl)c(Cl)c(Cl)c2Cl)nc(=S)[nH]1` ?
> 100 µM

Which TGI value belongs to CN(c1ccccc1)C1C(=O)N(c2ccccc2)C1/C=C/c1ccccc1 (stereo unspecified) ?
> 100 µM

Which TGI value belongs to `Cc1cc2c(cc1C)[n+](=O)c(N1CCN(c3ccc([N+](=O)[O-])cc3)CC1)c(C#N)n2[O-]` ?
21.7 µM

Which TGI value belongs to CC1=C[C@]2(CC(C)C3C(CC4(C)C5CCC6C(C)(C)C(=O)CC[C@@]67C[C@@]57CC[C@]34C)O2)OC1=O (stereo partly specified) ?
42.1 µM

Which TGI value belongs to CCN(CC)CCCC(Nc1c2ccc(Cl)cc2nc2ccc(OC)cc12)c1ccc(F)cc1 (stereo unspecified) ?
2.66 µM
